Data origin: PubChem BioAssay

# z-score per record follows
- Measurement protocol: FRG1 promoter luciferase signal modulators, primary screen, FRG1 inhibition for FSHD, cell-based, C2C12 myotubes, firefly/Renilla luciferase, luminescence (AID 1084)
- Stated conditions: higher = more signal, called active from +8 up or from −8 down
Observed property: z-score

compound=CC(C)=CCCC(C)=CCON=C1C[C@@H](O)[C@@H](O)[C@@H]2[C@@H]3C(=O)N(C4CCCCC4)C(=O)[C@@H]3CC[C@@H]12 observed_property=z-score observed_value=0.735
compound="CCOC(=O)[C@H](Cc1ccccc1)NC(=O)CCC1CC(OC(=O)NCCc2ccc(F)cc2)CC2(CCCC(COC(=O)NCc3ccccc3)O2)O1 (stereo partly drawn)" observed_property=z-score observed_value=0.292
compound=C#CCCCON=C1C[C@@H](O)[C@@H](O)[C@@H]2[C@@H]3C(=O)N(Cc4ccccc4)C(=O)[C@@H]3CC[C@@H]12 observed_property=z-score observed_value=-0.211
